target: FD2 8-mer
pKd: −log10 of the molar value.
endpointLabel: pKd

binder="NHERF-2 PDZ2 (N2P2) PDZ2, Q15599 (protein) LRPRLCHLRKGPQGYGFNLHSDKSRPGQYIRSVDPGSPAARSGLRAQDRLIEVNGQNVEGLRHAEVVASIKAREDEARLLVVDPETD" endpointlabel=pKd experimentalvalue=5.44
